Molecular target: Ephrin type-A receptor 7 (Homo sapiens)
Conditions: at 10 µM
Overview of recorded residual activity for various molecules
Measured property: residual activity (%)

[
  {
    "Molecule": "O=c1cc(-c2cccc3c2Sc2ccccc2S3)oc(N2CCOCC2)c1",
    "Assay system": "Ephrin type-A receptor 7 (Homo sapiens)",
    "Result unit": "%",
    "Experimental value": 98
  },
  {
    "Molecule": "O=C1Nc2cc(Br)ccc2/C1=C1/Nc2ccccc2/C1=N\\O",
    "Assay system": "Ephrin type-A receptor 7 (Homo sapiens)",
    "Result unit": "%",
    "Experimental value": 20
  },
  {
    "Molecule": "O=C(Nc1cccc(Nc2nccc(Nc3cccc(C(F)(F)F)c3)n2)c1)C1CC1",
    "Assay system": "Ephrin type-A receptor 7 (Homo sapiens)",
    "Result unit": "%",
    "Experimental value": 43
  },
  {
    "Molecule": "N#CCCc1ccc2c(c1)-c1[nH]c3ccc([N+](=O)[O-])cc3c1CC(=O)N2",
    "Assay system": "Ephrin type-A receptor 7 (Homo sapiens)",
    "Result unit": "%",
    "Experimental value": 56
  },
  {
    "Molecule": "Nc1ccc2ncnc(NCCc3ccc(Oc4ccccc4)cc3)c2c1",
    "Assay system": "Ephrin type-A receptor 7 (Homo sapiens)",
    "Result unit": "%",
    "Experimental value": 100
  },
  {
    "Molecule": "Nc1n[nH]c2nnc(-c3c(-c4ccccc4)nn4ccccc34)cc12",
    "Assay system": "Ephrin type-A receptor 7 (Homo sapiens)",
    "Result unit": "%",
    "Experimental value": 83
  },
  {
    "Molecule": "Cn1cnc2cc3c(Nc4cccc(Br)c4)ncnc3cc21",
    "Assay system": "Ephrin type-A receptor 7 (Homo sapiens)",
    "Result unit": "%",
    "Experimental value": 39
  },
  {
    "Molecule": "O=C1Nc2ccccc2/C1=C1/Nc2ccccc2/C1=N\\OCCC(O)CO (stereo unspecified)",
    "Assay system": "Ephrin type-A receptor 7 (Homo sapiens)",
    "Result unit": "%",
    "Experimental value": 10
  },
  {
    "Molecule": "CO[C@H]1[C@@H](OC)C[C@H](C)[C@@H](OC)C2=CC(=O)C=C(NC(=O)/C(C)=C/C=C/[C@H](OC)[C@@H](OC(N)=O)/C(C)=C/[C@@H]1C)C2=O",
    "Assay system": "Ephrin type-A receptor 7 (Homo sapiens)",
    "Result unit": "%",
    "Experimental value": 96
  },
  {
    "Molecule": "COc1cc2ncnc(N3CCN(C(=O)Nc4ccc(Oc5ccccc5)cc4)CC3)c2cc1OC",
    "Assay system": "Ephrin type-A receptor 7 (Homo sapiens)",
    "Result unit": "%",
    "Experimental value": 93
  },
  {
    "Molecule": "Nc1cccc(-c2cc3c(Oc4cccc(O)c4)ncnc3[nH]2)c1",
    "Assay system": "Ephrin type-A receptor 7 (Homo sapiens)",
    "Result unit": "%",
    "Experimental value": 15
  }
]
